// reported pEC50 per item
# tested-system: Serine/threonine-protein kinase Chk1 (Homo sapiens)
# Sequence (O14757 whole entry): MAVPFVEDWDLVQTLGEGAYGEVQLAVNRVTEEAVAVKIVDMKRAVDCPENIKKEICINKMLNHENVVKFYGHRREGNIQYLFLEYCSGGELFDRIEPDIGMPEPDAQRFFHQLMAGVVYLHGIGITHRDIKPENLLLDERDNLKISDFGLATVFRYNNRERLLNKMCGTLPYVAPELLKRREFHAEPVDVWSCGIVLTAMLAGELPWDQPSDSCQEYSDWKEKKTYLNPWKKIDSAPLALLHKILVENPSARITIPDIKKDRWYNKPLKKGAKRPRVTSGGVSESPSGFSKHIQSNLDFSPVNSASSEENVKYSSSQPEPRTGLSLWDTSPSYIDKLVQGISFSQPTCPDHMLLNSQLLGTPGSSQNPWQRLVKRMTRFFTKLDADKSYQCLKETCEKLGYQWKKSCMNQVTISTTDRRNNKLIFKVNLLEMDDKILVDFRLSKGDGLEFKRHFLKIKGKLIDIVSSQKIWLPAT
# assay-summary: Inhibition of CHK1 in human U2OS cells pretreated with hydroxyurea assessed as gamma-H2AX level after 2 hrs by immunofluorescence assay
# pEC50: negative log10 of molar concentration; output just the value

molecular_string=O=C(Nc1ccccc1N1CCNCC1)c1csc(-c2ccc3c(c2)CCO3)n1 measurement_kind=pEC50 measured_number=5.00
molecular_string=O=C(Nc1ccccc1N1CCNCC1)c1csc(-c2ccc3[nH]ccc3c2)n1 measurement_kind=pEC50 measured_number=5.46

Which pEC50 reading was recorded for the compound "O=C(Nc1ccccc1N1CCNCC1)c1csc(-c2ccc3sccc3c2)n1" ?
5.60

Which pEC50 reading was recorded for the compound "O=C(Nc1ccccc1N1CCNCC1)c1csc(-c2ccc3occc3c2)n1" ?
5.70

Which pEC50 reading was recorded for the compound "O=C(Nc1ccccc1N1CCNCC1)c1csc(-c2cc3ccccc3s2)n1" ?
5.82

====

# assay-summary: Selectivity ratio of IC50 for cyclinE/CDK2 to IC50 for CHK1
Recorded Ratio IC50 determines the label; the label ranges are low (below 2), moderate (2 to below 20), high (20 or more)

Observe how each entry below is paired with its result.
molecular_string=O=C(Nc1ccccc1N1CCNCC1)c1csc(-c2ccc3occc3c2)n1 qualitative_label=high
molecular_string=O=C(Nc1ccccc1N1CCNCC1)c1csc(-c2ccc3c(c2)CCO3)n1 qualitative_label=moderate
molecular_string=CN1CCN(c2ccccc2NC(=O)c2csc(-c3ccc4c(c3)CCO4)n2)CC1 qualitative_label=low

Category lookup for the compound "O=C(Nc1ccccc1N1CCNCC1)c1csc(-c2ccc3sccc3c2)n1"
high

Category lookup for the compound "O=C(Nc1ccccc1N1CCNCC1)c1csc(-c2cc[nH]n2)n1"
high

Category lookup for the compound "CC(=O)N1CCN(c2ccccc2NC(=O)c2csc(-c3ccc4c(c3)CCO4)n2)CC1"
low

Category lookup for the compound "O=C(Nc1ccccc1N1CCNCC1)c1csc(-c2cn[nH]c2)n1"
low

Category lookup for the compound "O=C(Nc1ccccc1N1CCNCC1)c1csc(-c2cccnc2)n1"
low

====

# tested-system: Serine/threonine-protein kinase Chk1 (Homo sapiens)
# assay-summary: Inhibition of recombinant His-tagged CHK1 using biotin-RSGLYRSPSMPENLNRPR as substrate after 1 hr by scintillation proximity assay
measurement-kind: IC50 (µM)
Quick reminder: number only, in µM, skip the unit.

As a guide, the following entries are already answered.
compound=O=C(Nc1ccccc1N1CCNCC1)c1csc(-c2cccs2)n1 tested_system="Serine/threonine-protein kinase Chk1 (Homo sapiens)" measured_number=0.036
compound=CC#Cc1nc(C(=O)Nc2ccccc2N2CCNCC2)cs1 tested_system="Serine/threonine-protein kinase Chk1 (Homo sapiens)" measured_number=3.9
compound=O=C(Nc1ccccc1N1CCNCC1)c1csc(-c2cc[nH]c2)n1 tested_system="Serine/threonine-protein kinase Chk1 (Homo sapiens)" measured_number=0.1

Which IC50 reading was recorded for the compound "O=C(Nc1ccccc1N1CCNCC1)c1csc(-c2ccccc2)n1" ?
0.087

Which IC50 reading was recorded for the compound "COc1ccc(-c2nc(C(=O)Nc3ccccc3N3CCNCC3)cs2)cc1OC" ?
0.52

Which IC50 reading was recorded for the compound "CN(C)c1ccc(-c2nc(C(=O)Nc3ccccc3N3CCNCC3)cs2)cc1" ?
0.019

Which IC50 reading was recorded for the compound "COc1ccc(-c2nc(C(=O)Nc3ccccc3N3CCNCC3)cs2)cc1" ?
0.072

Which IC50 reading was recorded for the compound CC1CNCCN1c1ccccc1NC(=O)c1csc(-c2ccc3c(c2)CCO3)n1 (stereo not given) ?
0.28
